Target: PTP ALPHA (Homo sapiens)
Construct: RTPα intracellular domain construct was obtained
Assay: PTP IC50 assay, pNPP or FDP as substrate
Settings: 25° C.
Kindly supply the reported IC50 values for the records listed here.
Numbers only, in µM.

State the recorded IC50 for this entry: "O=S(=O)(Nc1ccc(OCCCOc2ccc(NS(=O)(=O)C(F)(F)F)cc2)cc1)C(F)(F)F" 31

State the recorded IC50 for this entry: "O=C(O)c1ccc(Oc2cccc(Oc3ccc(S(=O)(=O)C(F)(F)F)cc3)c2)cc1" 40.4

---
State the recorded IC50 for this entry: "O=C(O)Cc1ccc(CC(=O)Nc2cccc(S(=O)(=O)C(F)(F)F)c2)cc1" 19.3

###

Biological target: PTP SHP2 (Homo sapiens, UniProt Q06124)
Construct: The catalytic domain was amplified using the following oligonucleotides; made in house; host or cells: Sf-9 insect cells (pFastBac-G2T)
Sequence (Q06124 247-517 limits assumed): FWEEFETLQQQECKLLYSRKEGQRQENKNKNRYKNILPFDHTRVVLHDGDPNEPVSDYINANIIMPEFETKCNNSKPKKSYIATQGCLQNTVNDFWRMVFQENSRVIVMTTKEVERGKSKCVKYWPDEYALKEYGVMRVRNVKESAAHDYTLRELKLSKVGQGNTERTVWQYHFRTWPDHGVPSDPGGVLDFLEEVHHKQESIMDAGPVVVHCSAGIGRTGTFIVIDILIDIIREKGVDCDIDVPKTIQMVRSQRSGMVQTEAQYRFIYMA
Experiment: PTP IC50 assay, fluorescent substrate DiFMUP
Format: biochemical
Details: DiFMUP as substrate, 25° C.; read-out: PTP IC50 SHP2
Kindly supply the reported IC50 values for the records listed here.
Numbers only, in µM.

Consider the worked cases shown below.
State the recorded IC50 for this entry: "CCOC(=O)c1cc(Oc2ccc(S(=O)(=O)C(F)(F)F)cc2[N+](=O)[O-])c(C(=O)OCC)cc1Oc1ccc(S(=O)(=O)C(F)(F)F)cc1[N+](=O)[O-]" 0.7

State the recorded IC50 for this entry: "CCn1c(-c2ccc(C(=O)OC)cc2)nc2cc(S(=O)(=O)C(F)(F)F)ccc21" 31.6

State the recorded IC50 for this entry: "O=C(Cc1cccc(CC(=O)Nc2ccc(S(=O)(=O)C(F)(F)F)cc2)c1)Nc1ccc(S(=O)(=O)C(F)(F)F)cc1" 2.3

---
State the recorded IC50 for this entry: "O=C(O)c1cc2cc(NS(=O)(=O)C(F)(F)F)ccc2n1CC1CCCCC1" 17.9

###

Target: PTP EPSILON (Homo sapiens)
Construct: made in house; host or cells: Sf-9 insect cells (pFastBac-G2T); a pGEX 6P-1 construct also existed
Sequence (P23469 80-393 limits assumed): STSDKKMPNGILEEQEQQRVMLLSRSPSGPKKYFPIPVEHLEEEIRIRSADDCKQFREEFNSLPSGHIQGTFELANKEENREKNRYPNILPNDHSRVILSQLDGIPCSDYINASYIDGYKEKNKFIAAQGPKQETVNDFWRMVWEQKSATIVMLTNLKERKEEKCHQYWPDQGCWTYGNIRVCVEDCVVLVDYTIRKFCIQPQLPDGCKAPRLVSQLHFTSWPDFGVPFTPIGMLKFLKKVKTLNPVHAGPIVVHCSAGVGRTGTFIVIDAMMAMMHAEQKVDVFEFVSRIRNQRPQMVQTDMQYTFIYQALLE
Assay: PTP IC50 assay, pNPP or FDP as substrate
Format: biochemical
Conditions: pNPP or FDP as substrate, 25° C.; read-out: PTP IC50 Epilson
Experimental: The following in vitro assay procedure is preferred to determine the level of activity and effect of the different compounds of the present invention on one or more of the PTPs. […] The catalytic assays described herein are performed in a 96-well format. […] Next, the Michaelis-Menten constant, or Km, is determined for each specific substrate-PTP system. […] All assays were performed using pNPP or FDP as substrate. The optimum pH was determined for each PTP used. […]
# note: exactly 10 µM is not below, so it is not fulfilled; use fulfilled for IC50 strictly under it

I'd appreciate it if you could check whether O=C(O)Cc1ccc(CC(=O)Nc2cccc(S(=O)(=O)C(F)(F)F)c2)cc1 [Example 29] has IC50 smaller than 10 µM. not fulfilled

I'd appreciate it if you could check whether CC(C)(c1ccc(NS(=O)(=O)C(F)(F)F)cc1)c1ccc(C(C)(C)c2ccc(NS(=O)(=O)C(F)(F)F)cc2)cc1 [Example 76] has IC50 smaller than 10 µM. fulfilled

I'd appreciate it if you could check whether O=S(=O)(Nc1ccc(Oc2ccc(Oc3ccc(NS(=O)(=O)C(F)(F)F)cc3)cc2)cc1)C(F)(F)F [Example 71] has IC50 smaller than 10 µM. not fulfilled

---
I'd appreciate it if you could check whether O=S(=O)(c1ccc(CCc2ccc(S(=O)(=O)C(F)(F)F)cc2)cc1)C(F)(F)F [Example 4] has IC50 smaller than 10 µM. not fulfilled

I'd appreciate it if you could check whether O=S(=O)(Nc1ccc(OCCCOc2ccc(NS(=O)(=O)C(F)(F)F)cc2)cc1)C(F)(F)F [Example 69] has IC50 smaller than 10 µM. not fulfilled

I'd appreciate it if you could check whether O=S(=O)(c1ccc(COCc2ccc(S(=O)(=O)C(F)(F)F)cc2)cc1)C(F)(F)F [Example 1] has IC50 smaller than 10 µM. not fulfilled

I'd appreciate it if you could check whether O=S(=O)(c1ccc(COc2ccc(S(=O)(=O)C(F)(F)F)cc2)cc1)C(F)(F)F [Example 2] has IC50 smaller than 10 µM. fulfilled

I'd appreciate it if you could check whether CCOC(=O)COc1ccc(S(=O)(=O)c2ccc(Oc3ccc(S(=O)(=O)C(F)(F)F)cc3)cc2)cc1 [Example 19] has IC50 smaller than 10 µM. not fulfilled

I'd appreciate it if you could check whether COC(=O)c1cc(Oc2ccc(S(=O)(=O)C(F)(F)F)cc2)cc(Oc2ccc(S(=O)(=O)C(F)(F)F)cc2)c1 [Example 9] has IC50 smaller than 10 µM. not fulfilled

I'd appreciate it if you could check whether O=S(=O)(Nc1ccc(-c2nnc(-c3ccc(NS(=O)(=O)C(F)(F)F)cc3)o2)cc1)C(F)(F)F [Example 75] has IC50 smaller than 10 µM. not fulfilled

I'd appreciate it if you could check whether O=C(NCc1ccc(S(=O)(=O)C(F)(F)F)cc1)c1ccccc1 [Example 6] has IC50 smaller than 10 µM. not fulfilled

I'd appreciate it if you could check whether O=C(O)c1ccc(Oc2cccc(Oc3ccc(S(=O)(=O)C(F)(F)F)cc3)c2)cc1 [Example 18] has IC50 smaller than 10 µM. fulfilled

I'd appreciate it if you could check whether O=C(Cc1ccccc1CC(=O)Nc1cccc(S(=O)(=O)C(F)(F)F)c1)Nc1cccc(S(=O)(=O)C(F)(F)F)c1 [Example 20] has IC50 smaller than 10 µM. fulfilled

I'd appreciate it if you could check whether O=C(Cc1ccc(CC(=O)Nc2cccc(S(=O)(=O)C(F)(F)F)c2)cc1)Nc1cccc(S(=O)(=O)C(F)(F)F)c1 [Example 22] has IC50 smaller than 10 µM. fulfilled
